system: Chromo domain-containing protein 1 (Saccharomyces cerevisiae (strain ATCC 204508 / S288c) (Baker's yeast)) (UniProt P32657)
Sequence (P32657 whole entry, the tested form may be a part): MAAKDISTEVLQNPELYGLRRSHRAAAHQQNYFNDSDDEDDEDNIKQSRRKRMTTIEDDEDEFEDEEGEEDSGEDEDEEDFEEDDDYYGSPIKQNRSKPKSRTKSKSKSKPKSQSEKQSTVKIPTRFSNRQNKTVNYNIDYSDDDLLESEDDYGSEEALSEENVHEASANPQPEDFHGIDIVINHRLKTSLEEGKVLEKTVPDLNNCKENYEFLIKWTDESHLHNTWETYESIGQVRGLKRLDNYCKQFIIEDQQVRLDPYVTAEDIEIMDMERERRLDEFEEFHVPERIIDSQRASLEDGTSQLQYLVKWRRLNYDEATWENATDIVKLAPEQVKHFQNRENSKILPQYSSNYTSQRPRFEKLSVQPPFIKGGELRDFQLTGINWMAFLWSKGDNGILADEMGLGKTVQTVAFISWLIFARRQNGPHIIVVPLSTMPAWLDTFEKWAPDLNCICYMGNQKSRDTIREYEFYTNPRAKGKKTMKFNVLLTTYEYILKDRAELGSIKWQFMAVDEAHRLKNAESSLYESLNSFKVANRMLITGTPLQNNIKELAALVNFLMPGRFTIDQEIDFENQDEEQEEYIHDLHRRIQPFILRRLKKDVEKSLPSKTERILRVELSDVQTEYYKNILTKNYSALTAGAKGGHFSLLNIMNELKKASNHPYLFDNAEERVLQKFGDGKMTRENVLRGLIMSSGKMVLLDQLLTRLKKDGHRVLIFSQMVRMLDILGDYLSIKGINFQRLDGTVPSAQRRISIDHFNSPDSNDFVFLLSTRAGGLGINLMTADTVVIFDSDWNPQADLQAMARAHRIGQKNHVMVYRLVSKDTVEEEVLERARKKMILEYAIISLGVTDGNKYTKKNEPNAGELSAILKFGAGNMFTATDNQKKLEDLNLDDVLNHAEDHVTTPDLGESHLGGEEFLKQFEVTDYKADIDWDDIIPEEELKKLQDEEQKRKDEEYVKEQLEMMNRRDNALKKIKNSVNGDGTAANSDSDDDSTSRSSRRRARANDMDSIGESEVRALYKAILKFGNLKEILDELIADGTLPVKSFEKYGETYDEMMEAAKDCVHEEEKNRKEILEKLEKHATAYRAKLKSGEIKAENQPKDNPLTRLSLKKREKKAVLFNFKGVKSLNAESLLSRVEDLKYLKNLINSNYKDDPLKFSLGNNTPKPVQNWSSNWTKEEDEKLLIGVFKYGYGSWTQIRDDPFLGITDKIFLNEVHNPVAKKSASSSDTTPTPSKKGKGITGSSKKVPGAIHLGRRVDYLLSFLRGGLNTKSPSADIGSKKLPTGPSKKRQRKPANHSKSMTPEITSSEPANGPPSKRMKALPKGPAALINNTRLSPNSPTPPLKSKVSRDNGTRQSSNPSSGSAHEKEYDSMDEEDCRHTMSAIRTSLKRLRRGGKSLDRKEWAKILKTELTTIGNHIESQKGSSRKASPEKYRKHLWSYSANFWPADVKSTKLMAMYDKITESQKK
assay details: ScCHD-1 Enzyme Inhibition Assay
Type: functional
Set-up: scale not given: in the data most compounds retested in dose-response had high values
particulars: 30 µM
Could you please report measured Percent Effect for the items listed next?
Give bare numbers, in %.

Example entries and their recorded answers appear below.
CN(CCc1ccc(F)cc1)Cc1nc2c(cnn2C)c(=O)[nH]1: -6.22
c1cc(CO[C@@H]2CC[C@H]3[C@H]2OCCN3CC2CCOCC2)ccn1: -9.05
c1cnc(N2CCC3(COCCN(CC4CC4)C3)C2)nc1 (configuration not stated): -1.41

For each of the items listed, what is its Percent Effect?
1. c1cncc(OC[C@@H]2CCC[C@@]23CNCCO3)c1
2. CC(C)N1CCc2c(CN(C)Cc3ccco3)cncc2C1

[-2.43, -4.61]

I have 6 compounds here; please give me Percent Effect for each one.
1. Cc1n[nH]c2c1C(c1cnn(C)c1)SCC(=O)N2 (configuration not stated)
2. CCN1C[C@H]2C[C@H](C(=O)NCc3cccnc3)[C@@H](C1)O2
3. COc1c(Br)cc(Br)cc1CNC(C)Cn1cccn1 (configuration not stated)
4. COc1ccc(-c2n[nH]cc2C2SCC(=O)Nc3[nH]ncc32)cc1 (configuration not stated)
5. COCC(=O)NC(C)Cc1cccc(Br)c1 (configuration not stated)
6. COc1ccc(C(=O)C2CCCN(Cc3ccncc3)C2)c(OC)c1 (configuration not stated)

1. -9.44
2. 2
3. -8.37
4. 0.161
5. -12.4
6. 83.7

Could you report Percent Effect for every entry in the following list?
1. CO[C@@H]1CN(Cc2scnc2C)[C@@H]2CCCO[C@@H]21
2. Cc1ccc(CC(=O)N2CCN(CC(O)c3ccccc3)CC2)cn1 (configuration not stated)
3. CCN1CCC(c2cncc(N(C)C)n2)CC1
4. CC(Cn1cccn1)NCc1nc(-c2cccs2)no1 (configuration not stated)
5. Cc1n[nH]c2c1C(c1ccc(O)c(Cl)c1)SCC(=O)N2 (configuration not stated)
6. CNC(=O)CN1CCOCC2(CCCN(Cc3cccnc3)C2)C1 (configuration not stated)
7. CN(C)c1ncc2c(n1)C1(CCN(Cc3ccccc3)C1)COC2 (configuration not stated)
8. O=C(NCC(F)(F)F)C1=NOC2(CCCNC2)C1 (configuration not stated)

1. -1.19
2. -5.71
3. -4.48
4. -2.61
5. -4.99
6. 3.52
7. -6.91
8. -0.335
